Each recorded value in this set is attributed to patent US11091496B2.

Format: physicochemical
Conditions: […]; total 1 mg/ml; 0.1 N HCl 37° C.; 9.75 h
Readout label: % Oxycodone, % IVA-IVD in hydrolysis mixture (%)
Please give a number only; it is taken to be in %.

Recorded % Oxycodone, % IVA-IVD in hydrolysis mixture, per entry:
### Prompt Need % Oxycodone, % IVA-IVD in hydrolysis mixture, item COc1ccc2c3c1O[C@H]1C4(CCC5(O)[C@@H](C2)N(C)CC[C@]315)O[C@H](C)C[C@@H](C)O4 (some centres unmarked)
### Response 0

### Prompt Need % Oxycodone, % IVA-IVD in hydrolysis mixture, item COc1ccc2c3c1O[C@H]1C4(CCC5(O)[C@@H](C2)N(C)CC[C@]315)O[C@@H](C)C[C@H](C)O4 (some centres unmarked)
### Response 1.5

### Prompt Need % Oxycodone, % IVA-IVD in hydrolysis mixture, item COc1ccc2c3c1O[C@H]1[C@]4(CCC5(O)[C@@H](C2)N(C)CC[C@]315)O[C@H](C)C[C@H](C)O4 (some centres unmarked)
### Response 15.6

### Prompt Need % Oxycodone, % IVA-IVD in hydrolysis mixture, item COc1ccc2c3c1O[C@H]1[C@@]4(CCC5(O)[C@@H](C2)N(C)CC[C@]315)O[C@H](C)C[C@H](C)O4 (some centres unmarked)
### Response 10.2

Turning now to a further record.
### Prompt Need % Oxycodone, % IVA-IVD in hydrolysis mixture, item COc1ccc2c3c1O[C@H]1C(=O)CC[C@@]4(O)[C@@H](C2)N(C)CC[C@]314 [Oxycodone, oxycodone, reference compound]
### Response 72.6

* * *

Type: physicochemical
Settings: […]; total 1 mg/ml; 0.1 N HCl 37° C.; 13.75 h
Readout label: % Oxycodone, % IVA-IVD in hydrolysis mixture (%)
Please give a number only; it is taken to be in %.

### Prompt Need % Oxycodone, % IVA-IVD in hydrolysis mixture, item COc1ccc2c3c1O[C@H]1C4(CCC5(O)[C@@H](C2)N(C)CC[C@]315)O[C@H](C)C[C@@H](C)O4 (some centres unmarked)
### Response 0

### Prompt Need % Oxycodone, % IVA-IVD in hydrolysis mixture, item COc1ccc2c3c1O[C@H]1[C@@]4(CCC5(O)[C@@H](C2)N(C)CC[C@]315)O[C@H](C)C[C@H](C)O4 (some centres unmarked)
### Response 10.4

### Prompt Need % Oxycodone, % IVA-IVD in hydrolysis mixture, item COc1ccc2c3c1O[C@H]1[C@]4(CCC5(O)[C@@H](C2)N(C)CC[C@]315)O[C@H](C)C[C@H](C)O4 (some centres unmarked)
### Response 9.9

Further cases:
### Prompt Need % Oxycodone, % IVA-IVD in hydrolysis mixture, item COc1ccc2c3c1O[C@H]1C4(CCC5(O)[C@@H](C2)N(C)CC[C@]315)O[C@@H](C)C[C@H](C)O4 (some centres unmarked)
### Response 0

### Prompt Need % Oxycodone, % IVA-IVD in hydrolysis mixture, item COc1ccc2c3c1O[C@H]1C(=O)CC[C@@]4(O)[C@@H](C2)N(C)CC[C@]314 [Oxycodone, oxycodone, reference compound]
### Response 79.7

* * *

Settings: unreacted oxycodone + four isomers of Formula IV; 1 mg/ml; 5% acetic acid 100° C.; 2 h
Please use 1 (yes) whenever % Oxycodone, % IVA-IVD in hydrolysis mixture is not below 9%, and 0 (no) whenever it is.

// below: answered compounds
### Prompt Could you verify whether the entry COc1ccc2c3c1O[C@H]1C(=O)CC[C@@]4(O)[C@@H](C2)N(C)CC[C@]314 [Oxycodone, oxycodone, reference compound] shows % Oxycodone, % IVA-IVD in hydrolysis mixture of no less than 9%?
### Response 1 (yes)

### Prompt Could you verify whether the entry COc1ccc2c3c1O[C@H]1C4(CCC5(O)[C@@H](C2)N(C)CC[C@]315)O[C@@H](C)C[C@H](C)O4 (some centres unmarked) shows % Oxycodone, % IVA-IVD in hydrolysis mixture of no less than 9%?
### Response 0 (no)

Further cases:
### Prompt Could you verify whether the entry COc1ccc2c3c1O[C@H]1C4(CCC5(O)[C@@H](C2)N(C)CC[C@]315)O[C@H](C)C[C@@H](C)O4 (some centres unmarked) shows % Oxycodone, % IVA-IVD in hydrolysis mixture of no less than 9%?
### Response 0 (no)

### Prompt Could you verify whether the entry COc1ccc2c3c1O[C@H]1[C@]4(CCC5(O)[C@@H](C2)N(C)CC[C@]315)O[C@H](C)C[C@H](C)O4 (some centres unmarked) shows % Oxycodone, % IVA-IVD in hydrolysis mixture of no less than 9%?
### Response 0 (no)

* * *

Listing of entries alongside the reported % Oxycodone, % IVA-IVD in hydrolysis mixture.
Format: physicochemical
Conditions: […]; total 1 mg/ml; 0.1 N HCl 37° C.; 2.33 h
Include the unit after the number when you answer.

Recorded % Oxycodone, % IVA-IVD in hydrolysis mixture, per entry:
### Prompt Need % Oxycodone, % IVA-IVD in hydrolysis mixture, item COc1ccc2c3c1O[C@H]1C(=O)CC[C@@]4(O)[C@@H](C2)N(C)CC[C@]314 [Oxycodone, oxycodone, reference compound]
### Response 47.6%

### Prompt Need % Oxycodone, % IVA-IVD in hydrolysis mixture, item COc1ccc2c3c1O[C@H]1C4(CCC5(O)[C@@H](C2)N(C)CC[C@]315)O[C@@H](C)C[C@H](C)O4 (stereo partly drawn) [IVC, oxycodone 2S,4S-pentanediol ketal]
### Response 17.7%

Further cases:
### Prompt Need % Oxycodone, % IVA-IVD in hydrolysis mixture, item COc1ccc2c3c1O[C@H]1[C@]4(CCC5(O)[C@@H](C2)N(C)CC[C@]315)O[C@H](C)C[C@H](C)O4 (stereo partly drawn) [IVA, oxycodone 2R,4S-pentanediol ketal]
### Response 25.9%

### Prompt Need % Oxycodone, % IVA-IVD in hydrolysis mixture, item COc1ccc2c3c1O[C@H]1[C@@]4(CCC5(O)[C@@H](C2)N(C)CC[C@]315)O[C@H](C)C[C@H](C)O4 (stereo partly drawn) [IVB, oxycodone 2S,4R-pentanediol ketal]
### Response 8.3%

### Prompt Need % Oxycodone, % IVA-IVD in hydrolysis mixture, item COc1ccc2c3c1O[C@H]1C4(CCC5(O)[C@@H](C2)N(C)CC[C@]315)O[C@H](C)C[C@@H](C)O4 (stereo partly drawn) [IVD, oxycodone 2R,4R-pentanediol ketal]
### Response 1.5%

* * *

Listing of entries alongside the reported % Oxycodone, % IVA-IVD in hydrolysis mixture.
Details: unreacted oxycodone + four isomers of Formula IV; 1 mg/ml; 5% acetic acid 100° C.; 4.35 h
Include the unit after the number when you answer.

Recorded % Oxycodone, % IVA-IVD in hydrolysis mixture, per entry:
### Prompt Need % Oxycodone, % IVA-IVD in hydrolysis mixture, item COc1ccc2c3c1O[C@H]1[C@@]4(CCC5(O)[C@@H](C2)N(C)CC[C@]315)O[C@H](C)C[C@H](C)O4 (stereo partly drawn) [IVB, oxycodone 2S,4R-pentanediol ketal]
### Response 9%

### Prompt Need % Oxycodone, % IVA-IVD in hydrolysis mixture, item COc1ccc2c3c1O[C@H]1C4(CCC5(O)[C@@H](C2)N(C)CC[C@]315)O[C@H](C)C[C@@H](C)O4 (stereo partly drawn) [IVD, oxycodone 2R,4R-pentanediol ketal]
### Response 0%

### Prompt Need % Oxycodone, % IVA-IVD in hydrolysis mixture, item COc1ccc2c3c1O[C@H]1C(=O)CC[C@@]4(O)[C@@H](C2)N(C)CC[C@]314 [Oxycodone, oxycodone, reference compound]
### Response 87.9%

### Prompt Need % Oxycodone, % IVA-IVD in hydrolysis mixture, item COc1ccc2c3c1O[C@H]1[C@]4(CCC5(O)[C@@H](C2)N(C)CC[C@]315)O[C@H](C)C[C@H](C)O4 (stereo partly drawn) [IVA, oxycodone 2R,4S-pentanediol ketal]
### Response 3.1%

Turning now to a further record.
### Prompt Need % Oxycodone, % IVA-IVD in hydrolysis mixture, item COc1ccc2c3c1O[C@H]1C4(CCC5(O)[C@@H](C2)N(C)CC[C@]315)O[C@@H](C)C[C@H](C)O4 (stereo partly drawn) [IVC, oxycodone 2S,4S-pentanediol ketal]
### Response 0%

* * *

Type: physicochemical
Details: […]; total 1 mg/ml; 0.1 N HCl 37° C.; 1.75 h
Mark true (1) only for % Oxycodone, % IVA-IVD in hydrolysis mixture values smaller than 20%; exact matches and larger values are false (0).

### Prompt Does this molecule meet the criterion % Oxycodone, % IVA-IVD in hydrolysis mixture < 20%? COc1ccc2c3c1O[C@H]1C4(CCC5(O)[C@@H](C2)N(C)CC[C@]315)O[C@@H](C)C[C@H](C)O4 (stereo partly drawn) [IVC, oxycodone 2S,4S-pentanediol ketal]
### Response false (0)

### Prompt Does this molecule meet the criterion % Oxycodone, % IVA-IVD in hydrolysis mixture < 20%? COc1ccc2c3c1O[C@H]1[C@@]4(CCC5(O)[C@@H](C2)N(C)CC[C@]315)O[C@H](C)C[C@H](C)O4 (stereo partly drawn) [IVB, oxycodone 2S,4R-pentanediol ketal]
### Response true (1)

### Prompt Does this molecule meet the criterion % Oxycodone, % IVA-IVD in hydrolysis mixture < 20%? COc1ccc2c3c1O[C@H]1C(=O)CC[C@@]4(O)[C@@H](C2)N(C)CC[C@]314 [Oxycodone, oxycodone, reference compound]
### Response false (0)

### Prompt Does this molecule meet the criterion % Oxycodone, % IVA-IVD in hydrolysis mixture < 20%? COc1ccc2c3c1O[C@H]1C4(CCC5(O)[C@@H](C2)N(C)CC[C@]315)O[C@H](C)C[C@@H](C)O4 (stereo partly drawn) [IVD, oxycodone 2R,4R-pentanediol ketal]
### Response true (1)

Next molecule, please.
### Prompt Does this molecule meet the criterion % Oxycodone, % IVA-IVD in hydrolysis mixture < 20%? COc1ccc2c3c1O[C@H]1[C@]4(CCC5(O)[C@@H](C2)N(C)CC[C@]315)O[C@H](C)C[C@H](C)O4 (stereo partly drawn) [IVA, oxycodone 2R,4S-pentanediol ketal]
### Response false (0)
